assay: Drug uptake in human NCI-H226 cells assessed as increase in green fluorescence intensity at 5 uM incubated for 30 mins by F-actin staining staining based microscopic analysis; type: ADME, cell-based; conditions: nci-h226, 0.5 h
measure: Drug uptake

Sample records with Drug uptake:
smiles.repr: CCN1/C(=C/C=C2\CCCC(/C=C/C3=[N+](Cc4ccc(C(=O)O)cc4)c4ccccc4C3(C)C)=C2Cl)C(C)(C)c2ccccc21.[Br-]
reported.measurement: Not_active

smiles.repr: COC(=O)CNC(=O)c1ccc(OCCC[N+]2=C(/C=C/C3=C(Cl)C(=C/C=C4/N(Cc5ccc(C(=O)O)cc5)c5ccccc5C4(C)C)/CCC3)C(C)(C)c3ccccc32)cc1.[Br-]
reported.measurement: Active

smiles.repr: CCCN1/C(=C/C=C2\CCCC(/C=C/C3=[N+](CCCOc4ccc(C(=O)O)cc4)c4ccccc4C3(C)C)=C2Cl)C(C)(C)c2ccccc21.[Br-]
reported.measurement: Not_active

smiles.repr: CC1(C)C(/C=C/C2=C(Cl)C(=C/C=C3/N(CCCCCC(=O)O)c4ccccc4C3(C)C)/CCC2)=[N+](CCCOc2ccc(C(=O)O)cc2)c2ccccc21.[Br-]
reported.measurement: Active

smiles.repr: CCCN1/C(=C/C=C2\CCCC(/C=C/C3=[N+](Cc4ccc(C(=O)O)cc4)c4ccccc4C3(C)C)=C2Cl)C(C)(C)c2ccccc21.[Br-]
reported.measurement: Active

smiles.repr: COC(=O)CCC(=O)CNC(=O)c1ccc(CN2/C(=C/C=C3\CCCC(/C=C/C4=[N+](Cc5ccc(C(=O)NCC(=O)CCC(=O)OC)cc5)c5ccccc5C4(C)C)=C3Cl)C(C)(C)c3ccccc32)cc1.[Br-]
reported.measurement: Active

Here is another molecule to look at.
Q: What value of Drug uptake has been reported for the following molecule? CCN1/C(=C/C=C2\CCCC(/C=C/C3=[N+](CCCOc4ccc(C(=O)O)cc4)c4ccccc4C3(C)C)=C2Cl)C(C)(C)c2ccccc21.[Br-]
Ans: Active

====

assay: Drug uptake in mouse 4T1 cells assessed as increase in red fluorescence intensity at 5 uM incubated for 30 mins by CY7 staining based microscopic analysis; format: ADME, cell-based; conditions: 4t1, 0.5 h
measure: Drug uptake

Use these answered entries as a reference point.
smiles.repr: CCN1/C(=C/C=C2\CCCC(/C=C/C3=[N+](CCCOc4ccc(C(=O)O)cc4)c4ccccc4C3(C)C)=C2Cl)C(C)(C)c2ccccc21.[Br-]
reported.measurement: Active
--
smiles.repr: CC1(C)C(/C=C/C2=C(Cl)C(=C/C=C3/N(CCCCCC(=O)O)c4ccccc4C3(C)C)/CCC2)=[N+](CCCOc2ccc(C(=O)O)cc2)c2ccccc21.[Br-]
reported.measurement: Active
--
smiles.repr: CCCN1/C(=C/C=C2\CCCC(/C=C/C3=[N+](CCCOc4ccc(C(=O)O)cc4)c4ccccc4C3(C)C)=C2Cl)C(C)(C)c2ccccc21.[Br-]
reported.measurement: Not_active
--
smiles.repr: CCCN1/C(=C/C=C2\CCCC(/C=C/C3=[N+](Cc4ccc(C(=O)O)cc4)c4ccccc4C3(C)C)=C2Cl)C(C)(C)c2ccccc21.[Br-]
reported.measurement: Active
--
smiles.repr: COC(=O)CCC(=O)CNC(=O)c1ccc(CN2/C(=C/C=C3\CCCC(/C=C/C4=[N+](Cc5ccc(C(=O)NCC(=O)CCC(=O)OC)cc5)c5ccccc5C4(C)C)=C3Cl)C(C)(C)c3ccccc32)cc1.[Br-]
reported.measurement: Active
--
smiles.repr: COC(=O)CNC(=O)c1ccc(OCCC[N+]2=C(/C=C/C3=C(Cl)C(=C/C=C4/N(Cc5ccc(C(=O)O)cc5)c5ccccc5C4(C)C)/CCC3)C(C)(C)c3ccccc32)cc1.[Br-]
reported.measurement: Active

Shifting focus to the molecule that follows.
Q: Could you tell me which Drug uptake is on file for CCN1/C(=C/C=C2\CCCC(/C=C/C3=[N+](Cc4ccc(C(=O)O)cc4)c4ccccc4C3(C)C)=C2Cl)C(C)(C)c2ccccc21.[Br-] ?
Ans: Not_active

Sourced from ChEMBL document CHEMBL6134863
